- MEASUREMENT TARGET: HDAC1 (Homo sapiens)
- Sequence (Q13547 whole entry, canonical isoform): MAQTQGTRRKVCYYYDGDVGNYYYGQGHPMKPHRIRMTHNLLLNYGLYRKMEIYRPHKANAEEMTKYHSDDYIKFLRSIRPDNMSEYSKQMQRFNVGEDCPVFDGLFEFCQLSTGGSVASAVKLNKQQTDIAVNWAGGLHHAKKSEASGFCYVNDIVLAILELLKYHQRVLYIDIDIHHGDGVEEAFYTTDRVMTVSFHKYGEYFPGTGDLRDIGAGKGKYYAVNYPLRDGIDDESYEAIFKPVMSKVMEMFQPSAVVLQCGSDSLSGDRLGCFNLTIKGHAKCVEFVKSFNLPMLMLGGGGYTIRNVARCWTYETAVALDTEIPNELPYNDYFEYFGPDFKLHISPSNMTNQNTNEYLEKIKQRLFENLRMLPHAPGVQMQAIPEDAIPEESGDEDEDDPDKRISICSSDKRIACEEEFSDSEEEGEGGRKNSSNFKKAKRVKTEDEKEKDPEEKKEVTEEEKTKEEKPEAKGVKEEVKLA
- MEASUREMENT NOTES: HDAC isoform inhibition (BPS Bioscience)
MEASUREMENT NAME: IC50 (nM)
Write the number in nM without appending the unit.

Q: Enter reported IC50 observed with HDAC1 (Homo sapiens) for O=C(CCCCCCn1cc(-c2ccc(O[C@H]3O[C@H](CO)[C@@H](O)[C@H](O)[C@H]3O)cc2)nn1)NO [STR-V-53]
Result: 24.3
